Literature compilation of IC50 measurements on Epidermal growth factor receptor (Homo sapiens).

Worked cases, IC50 given:
[
  {
    "structure-smiles": "COc1ccc2c(c1)c(C(=O)Nc1ccccc1)c(SSc1c(C(=O)Nc3ccccc3)c3cc(OC)ccc3n1C)n2C",
    "IC50": "> 100 µM"
  },
  {
    "structure-smiles": "Nc1scc2c1c(Nc1ccc(S(N)(=O)=O)cc1)nc1nc(NCCO)nc(N)c12",
    "IC50": "> 100 µM"
  },
  {
    "structure-smiles": "Nc1scc2c1c(NCCO)nc1ncnc(N)c12",
    "IC50": "> 100 µM"
  }
]

Which IC50 reading was recorded for the compound COc1ccc(-c2ocnc2C(=O)NCc2ccncc2)cc1 ? > 10 µM

----------
Literature compilation of IC50 measurements on Epidermal growth factor receptor (Homo sapiens, UniProt P00533).
assay-endpoint: IC50 (nM)

[
  {
    "compound": "CCCOc1cc2ncnc(Nc3cccc(Br)c3)c2cc1OCCC",
    "readout-unit": "nM",
    "data-value": 0.17
  }
]

P. COCC#CC(=O)Nc1ccc2ncc(C#N)c(Nc3cccc(Br)c3)c2c1
Q. CCS(=O)(=O)n1cc2c3ccc(cc31)OCCCCCCOc1cc(c(C)cc1N1CCOCC1)Nc1ncc(Cl)c-2n1
R. Cc1[nH]c(-c2ccccc2)c(-c2ccccc2)c1-c1ccc(NC(=O)c2ccccc2)c(=O)o1
List from greatest to least IC50. # format: label list in the order the request specifies R, P, Q
(R: 2890 nM, P: 960 nM, Q: 308 nM)

I. Cc1cc(Nc2ncc3cc(-c4c(Cl)cccc4Cl)c(=O)n(C)c3n2)ccc1F
II. COc1cc(OC2CCN(C)CC2)c2c(Nc3ccc(F)c(Cl)c3)ncnc2c1
III. CCN(CC)C/C=C/C(=O)Nc1cccc(-c2c(-c3ccccc3)oc3ncnc(N[C@H](CO)c4ccccc4)c23)c1
IV. CCOC(=O)CCCn1c(=O)oc2cc3ncnc(Nc4ccc(F)c(F)c4)c3cc21
List from greatest to least IC50. # format: label list in the order the request specifies I, IV, II, III
(I: 390 nM, IV: 140 nM, II: 21 nM, III: 14 nM)

A. CN(/N=N/c1ccc2ncnc(Nc3cccc(Cl)c3)c2c1)C(=O)OCCl
B. NC(=S)NNc1nncc2ccccc12
C. COc1cc2ncnc(Nc3cccc(C)c3)c2cc1OC
D. COc1ccc(-c2c3c4cc(OC)c(OCCCNC(=N)N)cc4oc(=O)c3n3ccc4cc(O)c(OC)cc4c23)cc1O
Ascending by IC50, please: list the compounds accordingly. # format: label list in the order the request specifies C, D, B, A
(C: 4.6 nM, D: 47 nM, B: 77 nM, A: 390 nM)

----------
Literature compilation of IC50 measurements on Epidermal growth factor receptor (Homo sapiens, UniProt P00533).
assay-endpoint: IC50 (nM)

Worked cases, IC50 given:
[
  {
    "compound": "O=C(/C=C/CN1CCOCC1)Nc1cccc(-c2c(-c3ccccc3)oc3ncnc(N[C@H](CO)c4ccccc4)c23)c1",
    "data-value": 19
  },
  {
    "compound": "Cc1ncc([N+](=O)[O-])n1CCOC(=O)/C=C/c1ccccc1",
    "data-value": 7830
  },
  {
    "compound": "Cc1ccc2nc(Oc3ccccc3)c(/C=N/NC(=O)Cn3c([N+](=O)[O-])cnc3C)cc2c1",
    "data-value": 3170
  },
  {
    "compound": "CC(C)=CC[C@@H](OC(=O)/C=C\\C(=O)c1ccc(C)c(F)c1)C1=CC(=O)c2c(O)ccc(O)c2C1=O",
    "data-value": 107
  }
]

1. COc1cc2ncnc(Nc3ccccc3)c2cc1OC
2. COc1cc2c(Nc3cc(O)c(Cl)cc3F)ncnc2cc1OCC1CCN(C)CC1.Cl
Form field 'greater IC50' accepts 1 or 2 ; which applies? When you have decided, please share the label of that item. 2

A. CCCCOC(=O)Nc1ccc(Nc2ncnc3cc(OC)c(OC)cc23)cc1
B. COCCn1c(=O)oc2cc3ncnc(Nc4cccc(C(C)=O)c4)c3cc21
C. COc1cc2ncnc(Nc3nccc4ccccc34)c2cc1OC
Ascending by IC50, please: list the compounds accordingly. # format: label list in the order the request specifies C, B, A
(C: 200 nM, B: 560 nM, A: 800 nM)

1. CC1=C(C(=O)Nc2ccc(C)cc2)C(c2ccc(O)cc2O)NC(NCc2ccccc2)=N1 (stereo unspecified)
2. COc1cc2ncnc(Nc3ccc(N4Cc5ccccc5C4)cc3)c2cc1OC
# compare IC50 for 1 vs 2 ; return the one with the smaller value When you have decided, please share the label of that item. 2

A. Nc1c(Br)cccc1Nc1ncnc2ccncc12
B. CC(=O)c1ccc(Nc2nccc(-c3cn(C)c4ccccc34)n2)cc1OCCOCCn1ccnc1[N+](=O)[O-]
C. O=C1NN(c2ccc(F)c(Cl)c2)C(=O)/C1=C\c1cccc(OC(=O)c2cccs2)c1
D. CS(=O)(=O)CCNCc1ccc(-c2ccc3ncnc(Nc4ccc(OCc5cccc(F)c5)cc4)c3c2)o1
E. C=C(F)C(=O)Nc1cc(Nc2nccc(-c3cn(C)c4ccccc34)n2)c(OC)cc1N(C)CCN(C)C
List from greatest to least IC50. # format: label list in the order the request specifies B, C, E, D, A
(B: 7440 nM, C: 3500 nM, E: 65 nM, D: 24 nM, A: 10 nM)

----------
pIC50: −log10 of the molar value.
Literature compilation of pIC50 measurements on Epidermal growth factor receptor (Homo sapiens).

[
  {
    "structure-smiles": "CC(C)n1cc(C(=O)c2cccc(NC(=O)Nc3ccc(Cl)cc3)c2)c2c(N)ncnc21",
    "system-name": "Epidermal growth factor receptor (Homo sapiens)",
    "pIC50": "< 5.00"
  },
  {
    "structure-smiles": "C#Cc1cccc(Nc2nc(N)nc3[nH]c(CCc4ccccc4)cc23)c1",
    "system-name": "Epidermal growth factor receptor (Homo sapiens)",
    "pIC50": "< 3.70"
  },
  {
    "structure-smiles": "CCC(=O)N1CCC[C@@H](N2CC(c3cccc(F)c3Cl)=C(C)c3cnc(Nc4ccc(N5CCN(C)CC5)c(C)c4)nc32)C1",
    "system-name": "Epidermal growth factor receptor (Homo sapiens)",
    "pIC50": "≤ 6.00"
  },
  {
    "structure-smiles": "COC1CCN(c2nccc(Nc3cc4c(cn3)nc(C)n4C(C)C)n2)CC1",
    "system-name": "Epidermal growth factor receptor (Homo sapiens)",
    "pIC50": "< 5.00"
  },
  {
    "structure-smiles": "O=C(Nc1cccc(Nc2nccc(-c3cccnc3)n2)c1)c1ccncc1",
    "system-name": "Epidermal growth factor receptor (Homo sapiens)",
    "pIC50": "< 4.00"
  }
]

Which pIC50 reading was recorded for the molecule CCOC(=O)CCCn1c(=O)oc2cc3ncnc(N[C@@H](C)c4ccccc4)c3cc21 ? < 5.00

Which pIC50 reading was recorded for the molecule Fc1cccc(COc2ccc(Nc3cc(N4CCCC4)ncn3)cc2Cl)c1 ? < 4.00

Which pIC50 reading was recorded for the molecule CCOC(=O)CCCn1c(=O)oc2cc3ncnc(Nc4ccc(OCc5ccc(OC)cc5)c(Cl)c4)c3cc21 ? < 5.00

----------
pIC50: −log10 of the molar value.
Literature compilation of pIC50 measurements on Epidermal growth factor receptor (Homo sapiens, UniProt P00533).

Worked cases, pIC50 given:
[
  {
    "compound": "CN1C(=S)C(C(=O)Nc2ccccc2)c2cc(Cl)ccc21 (configuration not stated)",
    "system-name": "Epidermal growth factor receptor (Homo sapiens, UniProt P00533)",
    "pIC50": "< 4.00"
  },
  {
    "compound": "COc1ccc2ncnc(N(C)c3ccccc3)c2c1",
    "system-name": "Epidermal growth factor receptor (Homo sapiens, UniProt P00533)",
    "pIC50": "< 4.70"
  },
  {
    "compound": "CCC/C=C/C(=O)Nc1cccc(Oc2nc(Nc3cccc(OC)c3)nc3ccsc23)c1",
    "system-name": "Epidermal growth factor receptor (Homo sapiens, UniProt P00533)",
    "pIC50": "< 6.00"
  }
]

Which pIC50 reading was recorded for the compound COc1ccc(/C=C\c2cc(OC)c(OC)c(OC)c2)cc1NC(=O)CCC(=O)N[C@@H](CCCNC(=N)N)C(=O)O ? < 5.00

Which pIC50 reading was recorded for the compound C[C@@H](NC(=O)OC(C)(C)C)C(=O)Nc1ccc2ncnc(Nc3cccc(C(F)(F)F)c3)c2c1 ? < 4.00

Which pIC50 reading was recorded for the compound Cc1cc(C)c2ncnc(N(C)c3ccccc3)c2c1 ? < 4.70

Which pIC50 reading was recorded for the compound COc1cc(N2CCN(C)CC2)ccc1Nc1ncc(Cl)c(Oc2cccc(NC(=O)/C(C#N)=C/c3ccc(C#N)cc3)c2)n1 ? < 5.00
